Values from patent US20260224688A1

Experiment: mRNA encapsulation efficiency of lipid nanoparticles
Assay type: physicochemical
Conditions: LNP with cationic lipid CL-B
recorded_metric: EE (%)

{"columns": ["compound", "EE (%)"],
 "data": [
  ["CCCCCCCCC(CCCCC)COC(=O)CCC(=O)OCC(COP(=O)(O)OCCN(C)C)OC(=O)CCC(=O)OCC(CCCCC)CCCCCCCC (centres unmarked)", 83],
  ["CCCCCCCCC(CCCCCCCC)OC(=O)CCCCCCC(=O)OCC(COP(=O)(O)OCCN(C)C)OC(=O)CCCCCCC(=O)OC(CCCCCCCC)CCCCCCCC (centres unmarked)", 93],
  ["CCCCCCCCOC(=O)CCCCCCCC(=O)OC(COC(=O)CCCCCCC(=O)OC(CCCCCCCC)CCCCCCCC)COP(=O)(O)OCCN(C)C (centres unmarked)", 88],
  ["CCCCCCCCC(CCCCCCCC)C(=O)OCCCCCCC(=O)OCC(COP(=O)(O)OCCN(C)C)OC(=O)CCCCCCOC(=O)C(CCCCCCCC)CCCCCCCC (centres unmarked)", 89],
  ["CCCCCCCCC(CCCCCCCC)OC(=O)CCCCCCC(=O)OCC(COP(=O)(O)OCCN)OC(=O)CCCCCCC(=O)OC(CCCCCCCC)CCCCCCCC (centres unmarked)", 94]
]}
